System: LXF-289
Assay comment: relative viability (nuclei count vs DMSO), 5 days (fraction); higher = more cells survive
Conditions used: first compound 0.5 µM
Property: relative viability
Answers are plain numbers.

Value sought for every listed molecule: relative viability.
1. COc1cc2nccc(Oc3ccc(NC(=O)Nc4cc(C)on4)c(Cl)c3)c2cc1OC [Tivozanib] + Nc1nc2[nH]cc(CCc3ccc(C(=O)N[C@@H](CCC(=O)O)C(=O)O)cc3)c2c(=O)[nH]1 [Pemetrexed] (partner 0.2 µM)
2. COc1cc2nccc(Oc3ccc(NC(=O)Nc4cc(C)on4)c(Cl)c3)c2cc1OC [Tivozanib] + Nc1ncn([C@H]2C[C@H](O)[C@@H](CO)O2)c(=O)n1 [Decitabine] (partner 2 µM)

0.887
0.404

This collection of values is drawn from the supplement of paper PMC10307832.
